The values you see were collected from PubChem BioAssay (NCI).

System: MDA-MB-435 melanoma
Test: NCI-60 one-dose screen, 48 h (100 = growth as untreated, 0 = no growth, -100 = all killed)
Conditions: 10 µM unless noted
Description: Growth inhibition of the MDA-MB-435 human Melanoma tumor cell line is measured as a screen for anti-cancer activity. Cells are grown in 96 well plates and exposed to the test compound for 48 hours. Compounds are tested at a single concentration, which is 10^-5 M for most compounds. The reported endpoint is percent growth (GI% or GIPRCNT), where numbers from 0 - 100% represent growth inhibition, and numbers from -100% - 0 represent cell death. […]
The panel holds about 83,000 compounds, 20% with a hit somewhere; the sample as a whole holds those more often.
value-kind: growth (%)
The answer is to be given in %; state only the numeric part.

Data request: Field request: growth | item: `Cc1[nH]c(=O)[nH]c(=O)c1CCSSCCc1c(C)[nH]c(=O)[nH]c1=O`
Data returned: 103

Data request: Field request: growth | item: `COc1ccc(C(=O)COc2cccc(/C=C3\CSc4ccc(Cl)cc4C3=O)c2)cc1`
Data returned: 93.2

Data request: Field request: growth | item: `O=C(COc1ccc(/C=C2\Cc3ccccc3C2=O)cc1)c1ccc(Cl)cc1`
Data returned: 95.4

Data request: Field request: growth | item: `Nc1ccccc1-c1ccn[nH]1`
Data returned: 93.2

Data request: Field request: growth | item: `O=C(CNc1ccc2c(c1)C(=O)c1ccccc1C2=O)Nc1ccc2c(c1)C(=O)c1ccccc1C2=O`
Data returned: -82.4

Data request: Field request: growth | item: `COc1cc(/C(Cl)=C/C=C/C(=O)c2c(C)[n+]([O-])c3ccc(Cl)cc3[n+]2[O-])cc(OC)c1OC`
Data returned: 6.9

Data request: Field request: growth | item: `O=C(c1ccc(N2CCOCC2)cc1[N+](=O)[O-])N1CCOCC1`
Data returned: -32.2

Data request: Field request: growth | item: `CC(=O)c1ccccc1NC(=O)C(C)(c1ccccc1)c1ccccc1`
Data returned: 98.6

Data request: Field request: growth | item: `Cc1ccccc1NC(=O)N/C(N)=N/c1nc2ccccc2s1`
Data returned: -11.4

Data request: Field request: growth | item: `O=C1Nc2ccc(Cl)cc2[C@@](C#CC2CC2)(C(F)(F)F)O1`
Data returned: 88
